Experiment: Pharmacokinetics in rats after oral administration
Format: in vivo
Details: male, Sprague-Dawley, rat, single dose 30 mg/kg calycosin, plasma
recorded_metric: AUC(0-t) (ng·h/mL)
Express the result in ng·h/mL but write the number alone.

Using the record for COc1ccc(-c2coc3cc(O)ccc3c2=O)cc1O , report its AUC(0-t).
409
